Let's look at some compounds and their measured pIC50.
Target: human recombinant CBL-b (human Biotin CBL-b recombinant protein a.a. 39-426) (Homo sapiens, UniProt Q13191)
Construct: human Biotin CBL-b recombinant protein a.a; 39-426; Biotin (biotinylated)
Sequence (Q13191 39-426): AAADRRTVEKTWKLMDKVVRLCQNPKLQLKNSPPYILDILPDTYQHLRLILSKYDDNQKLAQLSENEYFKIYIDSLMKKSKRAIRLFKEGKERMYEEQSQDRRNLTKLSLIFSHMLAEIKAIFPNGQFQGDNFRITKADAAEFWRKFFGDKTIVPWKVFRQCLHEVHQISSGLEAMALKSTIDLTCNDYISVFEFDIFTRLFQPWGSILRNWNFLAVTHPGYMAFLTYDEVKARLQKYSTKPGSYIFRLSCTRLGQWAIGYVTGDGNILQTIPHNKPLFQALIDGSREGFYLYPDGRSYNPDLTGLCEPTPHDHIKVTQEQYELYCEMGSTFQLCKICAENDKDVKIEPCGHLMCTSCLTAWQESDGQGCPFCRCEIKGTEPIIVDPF
Test: Biochemical assay for CBL-b inhibition (ligand displacement TR-FRET)
Details: 50 nM CBL-b, 0.3 μM Bodipy FL-Probe, read-out: IC50 (CBL-b inhibition, group)
pIC50: −log10 of the molar value.

>  <Compound>
CC(Cc1nncn1C)c1ccc2c(c1)C(=O)N(c1cc(CN3CCC[C@H](C)C3)cc(Cl)n1)C2 (some centres unmarked) [Compound 83]

>  <pIC50>
> 7.10

$$$$
>  <Compound>
Cc1cc(CNCC2(O)COC2)cc(N2Cc3ccc(-c4ccc(F)cc4-c4nncn4C)cc3C2=O)n1 [Compound 291]

>  <pIC50>
6.52 to 7.10

$$$$
>  <Compound>
C[C@H](NCc1ccccn1)c1cc(Cl)nc(N2Cc3ccc(C4(Cc5nncn5C)COC4)cc3C2=O)c1 (single isomer, unassigned) [Compound 242]

>  <pIC50>
6.52 to 7.10

$$$$
>  <Compound>
Cc1cc(CNC(C)C2CC2)cc(N2Cc3ccc(-c4ccc(Cl)cc4-c4nncn4C)cc3C2=O)n1 (centres unmarked) [Compound 122]

>  <pIC50>
> 7.10

$$$$
>  <Compound>
C[C@H](NCc1cscn1)c1cc(Cl)nc(N2Cc3ccc(C4(Cc5nncn5C)COC4)cc3C2=O)c1 (single isomer, unassigned) [Compound 218]

>  <pIC50>
> 7.10

$$$$
>  <Compound>
Cc1cc(CNCC2CC2)cc(N2Cc3c(F)cc(-c4ccc(F)cc4-c4nncn4C)cc3C2=O)n1 [Compound 296]

>  <pIC50>
> 7.10

$$$$
>  <Compound>
CC1CN(Cc2cc(Cl)nc(N3Cc4ccc(C5(Cc6nncn6C)COC5)cc4C3=O)c2)CC1F (centres unmarked) [Compound 197]

>  <pIC50>
> 7.10

$$$$
>  <Compound>
Cn1cnnc1CC1(c2ccc3c(c2)C(=O)N(c2cc(CNCC4CC4)cc(C(F)(F)F)n2)C3)COC1 [Compound 80]

>  <pIC50>
> 7.10

$$$$

What the record says about CCC1CCCN(Cc2cc(Cl)nc(N3Cc4ccc(C5(Cc6nncn6C)COC5)cc4C3=O)c2)C1 (centres unmarked) [Compound 148] : pIC50 is > 7.10

What the record says about Cn1cnnc1C[C@]1(c2ccc3c(c2)C(=O)N(c2cc(CNCC4CC4)cc(Cl)n2)C3)C[C@@H](C#N)C1 (single isomer, unassigned) [Compound 234] : pIC50 is > 7.10

What the record says about C[C@H]1CCCN(Cc2cc(Cl)nc(N3Cc4ccc(-c5c(-c6nncn6C)cnn5C)cc4C3=O)c2)C1 [Compound 114] : pIC50 is 5.30 to 6.52

What the record says about Cn1cnnc1CC1(c2ccc3c(c2)C(=O)N(c2cc(CNCC4CCCCC4)cc(Cl)n2)C3)COC1 [Compound 153] : pIC50 is 6.52 to 7.10

What the record says about Cn1cnnc1CC1(c2ccc3c(c2)C(=O)N(c2cc(CNCC4(F)CCC4)cc(Cl)n2)C3)COC1 [Compound 185] : pIC50 is > 7.10

What the record says about C[C@H](NCC1CC1)c1cc(Cl)nc(N2Cc3ccc(-c4ccc(Cl)cc4-c4nncn4C)cc3C2=O)c1 (single isomer, unassigned) [Compound 111] : pIC50 is > 7.10

From: patent US20260226073A1
